# Target Under Test: CDK12 (Homo sapiens, UniProt Q9NYV4)
# Sequence (Q9NYV4 whole entry, species assumed): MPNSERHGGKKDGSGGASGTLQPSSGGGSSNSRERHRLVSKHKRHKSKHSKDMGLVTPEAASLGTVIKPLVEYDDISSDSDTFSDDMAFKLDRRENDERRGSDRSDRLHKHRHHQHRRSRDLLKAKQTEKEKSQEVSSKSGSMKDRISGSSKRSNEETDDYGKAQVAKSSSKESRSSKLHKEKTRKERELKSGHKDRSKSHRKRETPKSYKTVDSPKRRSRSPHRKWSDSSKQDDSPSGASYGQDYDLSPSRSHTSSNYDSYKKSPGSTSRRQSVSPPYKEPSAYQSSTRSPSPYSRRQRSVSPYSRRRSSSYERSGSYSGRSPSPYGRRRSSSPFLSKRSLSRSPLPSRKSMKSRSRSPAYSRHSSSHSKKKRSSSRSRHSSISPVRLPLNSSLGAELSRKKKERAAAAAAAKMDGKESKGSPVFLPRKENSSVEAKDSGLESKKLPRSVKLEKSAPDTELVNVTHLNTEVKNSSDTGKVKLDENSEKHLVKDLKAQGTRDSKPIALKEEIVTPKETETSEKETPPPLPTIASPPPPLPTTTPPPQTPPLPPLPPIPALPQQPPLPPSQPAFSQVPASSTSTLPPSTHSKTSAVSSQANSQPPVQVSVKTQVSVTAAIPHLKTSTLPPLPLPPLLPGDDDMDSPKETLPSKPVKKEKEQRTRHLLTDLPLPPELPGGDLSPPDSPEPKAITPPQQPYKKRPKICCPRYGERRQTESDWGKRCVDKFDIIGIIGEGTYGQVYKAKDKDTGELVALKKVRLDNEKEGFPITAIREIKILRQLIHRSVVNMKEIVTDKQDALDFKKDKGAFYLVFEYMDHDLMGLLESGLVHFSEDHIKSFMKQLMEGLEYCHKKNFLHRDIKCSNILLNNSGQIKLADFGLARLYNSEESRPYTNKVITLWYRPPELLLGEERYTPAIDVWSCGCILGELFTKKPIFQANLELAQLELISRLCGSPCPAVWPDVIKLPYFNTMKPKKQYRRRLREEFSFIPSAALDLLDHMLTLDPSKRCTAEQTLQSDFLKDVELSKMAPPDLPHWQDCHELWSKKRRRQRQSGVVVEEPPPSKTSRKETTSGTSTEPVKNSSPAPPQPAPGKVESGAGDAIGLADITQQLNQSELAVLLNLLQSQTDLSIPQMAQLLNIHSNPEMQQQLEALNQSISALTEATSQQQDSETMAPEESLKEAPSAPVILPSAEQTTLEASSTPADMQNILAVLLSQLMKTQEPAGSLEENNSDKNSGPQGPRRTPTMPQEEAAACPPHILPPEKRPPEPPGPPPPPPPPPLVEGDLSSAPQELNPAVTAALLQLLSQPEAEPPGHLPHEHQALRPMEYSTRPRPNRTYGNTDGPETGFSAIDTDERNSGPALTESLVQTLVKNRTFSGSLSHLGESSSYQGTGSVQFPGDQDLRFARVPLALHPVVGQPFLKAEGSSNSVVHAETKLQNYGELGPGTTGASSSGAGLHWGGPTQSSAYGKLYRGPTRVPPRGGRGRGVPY
# Sequence (O75909 whole entry partner, species assumed): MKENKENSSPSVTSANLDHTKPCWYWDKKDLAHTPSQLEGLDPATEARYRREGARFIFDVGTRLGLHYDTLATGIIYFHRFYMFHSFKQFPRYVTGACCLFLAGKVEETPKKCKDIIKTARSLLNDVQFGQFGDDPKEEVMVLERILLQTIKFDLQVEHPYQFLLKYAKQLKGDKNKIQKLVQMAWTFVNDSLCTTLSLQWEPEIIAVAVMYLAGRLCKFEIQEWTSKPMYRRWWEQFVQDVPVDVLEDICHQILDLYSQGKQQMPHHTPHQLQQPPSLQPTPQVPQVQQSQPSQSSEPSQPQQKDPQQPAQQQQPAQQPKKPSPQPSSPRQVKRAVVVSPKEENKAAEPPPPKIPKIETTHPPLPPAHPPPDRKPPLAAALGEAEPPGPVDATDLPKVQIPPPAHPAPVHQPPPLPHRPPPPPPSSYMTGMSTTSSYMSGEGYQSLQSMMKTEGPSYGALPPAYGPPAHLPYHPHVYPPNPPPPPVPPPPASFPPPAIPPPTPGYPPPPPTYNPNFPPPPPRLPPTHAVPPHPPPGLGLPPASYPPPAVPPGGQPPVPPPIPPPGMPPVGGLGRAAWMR
# Measurement Protocol: CDK12 kinase inhibitory activity assay (33P-ATP filter binding)
# Format: biochemical
# Condition Context: kinase reaction 120 minutes, 33P-gamma-ATP; read-out: CDK12 IC50
Below: a set of entries, each annotated with reported IC50.
Measurement Name: IC50

In [3]: df
Out[3]:
                                   molecule  measurement_name            val
0  N#CC1(O)CN(c2cc(NCc3nc4cc(Cl)c(Cl)cc4[nH]3)c3ncc(C(F)(F)F)n3n2)C1              IC50  100 to 500 nM
1  NC(=O)N1CCN(c2cc(NCc3nc4ccc(F)c(F)c4[nH]3)c3ncc(C(F)(F)F)n3n2)CC1              IC50       < 100 nM
2  FC(F)(F)c1cnc2c(NCc3nc4cc(Cl)c(Cl)cc4o3)cc(N3CCOCC3)nn12              IC50       > 500 nM
3  CC1(O)CCN(c2cc(NCc3nc4cc(Cl)c(Cl)cc4[nH]3)c3ncc(C(F)(F)F)n3n2)CC1              IC50  100 to 500 nM
4  N#CC1CCN(c2cc(NCc3nc4cc(Cl)c(Cl)cc4[nH]3)c3ncc(C(F)(F)F)n3n2)C1 (stereo not drawn)              IC50       < 100 nM
5  Fc1ccc2nc(CNc3cc(N4C5CCC4COC5)nn4c(C(F)(F)F)cnc34)[nH]c2c1F              IC50  100 to 500 nM
